# Tested on: SF-539
# test summary: NCI tumour cell line growth inhibition, 48 h
The source made the active and inactive calls. Cut-off read from the data, not from the text of the source: active = GI50 up to about 1.1 µM and inactive = higher. *1 amine or outer side, *2 acyl side, *3 side chain or, on linkers, in order; H or OH if unused. Where a SMILES comes first, the peptide text is derived from it. Bridges are numbered along the chain shown (N, C = ends). Roman numbers before positions name the chains, in order. [ ]: non-standard residue; d: D form. Actinocin(9to1) = Cc1c2oc3c(C)ccc(C(=O)[*:1])c3nc-2c(C(=O)[*:2])c(N)c1=O; NMeV = CN[CH](C(=O)O)C(C)C; Sar = CNCC(=O)O
The reply should name one outcome from active, inactive

Would you please look over these solved cases?
INSERT INTO assay_data (molecule, class_label) VALUES
  ('Fc1ccccc1CN1COc2c(cc(Cl)c3cccnc23)C1', 'inactive'),
  ('COC(=O)CCC(C)[C@H]1CCC2C3C(C[C@H](OC(C)=O)[C@@]21C)[C@@]1(C)CCC2(C[C@H]1C[C@H]3OC(C)=O)OOC1(CCCC1)OO2 (stereo partly specified)', 'inactive'),
  ('Cc1c2oc3c(C)ccc(C(=O)NC4C(=O)NC(C(C)O)C(=O)N5CCCC5C(=O)N(C)CC(=O)N(C)C(C(C)C)C(=O)OC4C)c3nc-2c(C(=O)NC2C(=O)NC(C(C)O)C(=O)N3CCCC3C(=O)N(C)CC(=O)N(C)C(C(C)C)C(=O)OC2C)c(N)c1=O (stereo unspecified) (I: TTP[Sar][NMeV] / II: TTP[Sar][NMeV]; ester I:1-I:C, II:1-II:C; linker I:N-II:N via Actinocin(9to1); configuration not given here)', 'active'),
  ('COc1ccc2c(c1)[n+]([O-])c(C(C)=O)c(C)[n+]2[O-]', 'inactive'),
  ('O=c1oc(-c2ccc(O)c(O)c2)cc2cccc(O)c12', 'inactive');

Hello, I am checking results. What call was entered for `CC1(C)O/C(=C\c2ccccc2)C(=O)/C(=C/c2ccccc2)O1` ?
inactive

What classification did `FC(F)(F)c1ccc(/N=N/N2CCCC2)cc1` end up with in this test?
inactive

Called result for CC1OC1C(=O)P(=O)(O)O (stereo unspecified)
inactive

Recorded test call requested for `COc1ccc(CCc2ccc(O)c(C(=O)O)c2)cc1OC`
inactive

###

# System: SK-MEL-5
# test summary: NCI tumour cell line growth inhibition, 48 h
Calls of active or inactive are those of the source. Cut-off read from the data, not from the text of the source: active = GI50 up to about 1.1 µM and inactive = higher.
Thanks in advance; please answer with one of these: active, inactive

INSERT INTO results (molecule, class_label) VALUES
  ('Cc1cc(/N=C/c2c(CO)cnc(C)c2O)c(/N=C/c2c(CO)cnc(C)c2O)cc1C.[Zn+2]', 'inactive'),
  ('CC(C)(C)OC(=O)NCCNC(=O)OCc1ccccc1', 'inactive'),
  ('O=C(CCCN1CCC(C(O)c2ccc(F)cc2)CC1)c1ccc(F)cc1 (configuration not stated)', 'inactive'),
  ('CC1(C)OC2OC(COC(=O)C(c3ccccc3)c3ccccc3)C3OC(C)(C)OC3C2O1 (configuration not stated)', 'inactive'),
  ('Clc1cc(Cl)cc(C2SCc3nc4ccccc4n32)c1 (configuration not stated)', 'inactive');

Given `N/C(=N\c1ccccc1Cl)c1ccccc1N` , state the outcome it received in this test.
inactive

// outcome(item) with item = `COc1ccc2c(c1)-c1oc3ccccc3c(=O)c1CO2`
inactive

Could you check what this test reported for `N#C/C(N)=C(C#N)/N=C/Nc1ccc(N)cc1` ?
inactive

// param item: `N#Cc1c(-c2ccc(Cl)cc2)c(C#N)c(=O)n(NS(=O)(=O)c2ccccc2)c1O` ; yields the recorded call
inactive

Called result for `CCCOc1ccc(/C=C/c2cc(OC)c(OC)c(OC)c2)cc1`
active

Which outcome was assigned to `N#CCc1nc(-c2ccccc2)n[nH]1` in this test?
inactive

Record lookup: outcome of this test for `COC1(OC)CC(CO)(COc2cc(Cl)nc(N)n2)C1` ?
inactive

Hi, do you know how `C[C@]12CC[C@H](O)C=C1CC[C@@H]1[C@@H]2CC[C@]2(C)C(=N/O)/C(=C/c3ccncc3)C[C@@H]12` came out in this test?
inactive

Called result for `Cc1ccccc1NC(=O)CSc1nnc(Cc2ccccc2)o1`
inactive

###

# System: ACHN
# test summary: NCI tumour cell line growth inhibition, 48 h
Calls of active or inactive are those of the source. Rule as the data show it: active = GI50 up to about 1.1 µM and inactive = higher.
Parameter: GI50. Scope: all listed entries.

Entry O=C(O)C12C3CCC(C3)C1(C(=O)O)C1CCC2C1 (stereo unspecified) : reported GI50 = ?
> 100 µM (inactive)

###

# Tested on: CAKI-1
# test summary: NCI tumour cell line growth inhibition, 48 h
Active and inactive are the calls of the source. Cut-off read from the data, not from the text of the source: active = GI50 up to about 1.1 µM and inactive = higher.
measurement kind: GI50

Worked set:
INSERT INTO measurements (molecule, measured_value) VALUES
  ('COc1ccc(P2(=S)OC(C)(C)C(C)(C)O2)cc1', '50.9 µM (inactive)'),
  ('CC(C)(C)c1cc(C(=O)Nc2cc(Br)c(Br)cc2S(N)(=O)=O)cc(C(C)(C)C)c1O', '9.93 µM (inactive)'),
  ('CCN(CC)CCn1nc2c3c(c(NCCN)ccc31)Sc1cc(O)ccc1-2', '0.516 µM (active)'),
  ('CC(C)(C)C(=O)N(C(=S)OCc1ccccn1)c1ccccc1', '35.2 µM (inactive)');

# GI50 lookup, item `N#CCc1nc(-c2ccccc2)n[nH]1`
> 100 µM (inactive)

Item under review: COC(=O)CC1(O)C(/C=C/c2ccccc2)C(C(=O)OC)C(=O)C(C(=O)OC)C1C(=O)OC (configuration not stated) . Reported GI50?
> 100 µM (inactive)

Reported GI50 for COC(=O)c1ccccc1C1CN=NC12Cc1c(C)cccc1C2=O (configuration not stated) : what is it?
> 100 µM (inactive)

###

# Test system: HCC 2998
# test summary: NCI tumour cell line growth inhibition, 48 h
Calls of active or inactive are those of the source. No stated cut-off is given here; in the data, active = GI50 up to about 1.1 µM and inactive = higher.
measurement kind: GI50

INSERT INTO results (compound, measured_value) VALUES
  ('CC1=C(C)SC(=C2Sc3[n-]c(=O)[nH]c(=O)c3S2)S1.CCCC[N+](CCCC)(CCCC)CCCC', '> 100 µM (inactive)');

# value lookup — system HCC 2998, readout GI50, item `COc1cc(=O)oc(/C=C/C=O)c1C`
17.9 µM (inactive)

Field: GI50 (HCC 2998). Entry: `CN(N=O)N1C(=O)SCC(c2ccccc2)(c2ccccc2)C1=O`
89.1 µM (inactive)

Request body: readout GI50, system HCC 2998, query `Nn1c(S)nnc1COc1cccc(OCc2nnc(S)n2N)c1` . Return the value.
> 100 µM (inactive)

GI50 of COC(=O)C1=CO[C@@H](OC2OC(CO)C(O)C(O)C2O)[C@@H]2[C@H](C)[C@@H](O)[C@@H](O)[C@]12O (some centres undefined) on HCC 2998?
> 100 µM (inactive)

###

Measured GI50 accompanies every entry in the list below.
# Test system: OVCAR-3
# test summary: NCI tumour cell line growth inhibition, 48 h
Calls of active or inactive are those of the source. Cut-off read from the data, not from the text of the source: active = GI50 up to about 1.1 µM and inactive = higher.

INSERT INTO assay_data (molecule, measurement_kind, measured_value) VALUES
  ('O=C1C(Br)=C(Br)C(=O)c2ccc(=O)ccc21', 'GI50', '20.8 µM (inactive)');

For `COc1ccc2c(Cc3c4ccccc4cc4ccccc34)cncc2c1O` , what is its reported GI50?
1.98 µM (inactive)

Using the record for `Cc1cccc(-c2nc3ccc([N+](=O)[O-])cc3c(=O)o2)c1` , report its GI50.
47.9 µM (inactive)

So what's the measured GI50 for this one? `Clc1cccc(/C=c2\nc(-c3ccccc3)n3c2nc2ccccc23)c1`
> 100 µM (inactive)

Record request: GI50 value, item `Cc1ccc(C(=O)/C=C(\O)C(=O)NN=C(c2ccccc2)c2ccccc2)cc1`
> 100 µM (inactive)

Could you tell me which GI50 is on file for Cc1ccc(S(=O)(=O)N(CC(O)c2ccccc2)c2ccccc2F)cc1 (stereo unspecified) ?
11.3 µM (inactive)

###

# System: NCI-H226
# test summary: NCI tumour cell line growth inhibition, 48 h
Activity calls are given as the source filed them. Cut-off read from the data, not from the text of the source: active = GI50 up to about 1.1 µM and inactive = higher.
Catalogue of GI50 readings, one per entry.

Below are worked cases with known answers.
INSERT INTO measurements (compound, measured_value) VALUES
  ('c1ccc2c(c1)nnn2CNc1ccc(N2CCCCC2)cc1', '> 100 µM (inactive)'),
  ('CC1(C)O/C(=C\c2ccccc2)C(=O)/C(=C/c2ccccc2)O1', '17.7 µM (inactive)');

So what's the measured GI50 for this one? `Cn1c(=O)c2nc3sc4c(n3c2n(C)c1=O)C(=O)c1ccccc1C4=O`
65.8 µM (inactive)

Quick one: GI50 of COc1nc(NC2OC(COC(C)=O)C(OC(C)=O)C(OC(C)=O)C2OC(C)=O)c(-c2csc(N)n2)c(=O)n1C (configuration not stated) ?
37.9 µM (inactive)

Using the record for COC(=O)CC1(O)C(/C=C/c2ccccc2)C(C(=O)OC)C(=O)C(C(=O)OC)C1C(=O)OC (configuration not stated) , report its GI50.
> 100 µM (inactive)

Provenance of the data: ChEMBL document CHEMBL1201862
